Assay: Rat plasma and liver PK after iv administration
Format: in vivo, SD rats
Conditions: male, Sprague-Dawley, plasma, 0.015 mmol/kg, monitored compound FDURP, iv
Reported Metric: AUC(0-inf) (ng·h/mL)
Unit ng·h/mL implied. Number only.

Look up and report measured AUC(0-inf) for this entry: Cc1ccccc1COP(=O)(NCc1ccccc1)OCC1OC(n2cc(F)c(=O)[nH]c2=O)CC1O (stereo not shown) [FDURP]
10400

* * *

Test: Rat plasma and liver PK after iv administration
Type: in vivo, SD rats
Settings: male, Sprague-Dawley, plasma, 0.015 mmol/kg, monitored compound FDURP, iv, printed in Tmax column, read-out: plasma T½ (converted)
Reported Metric: half-life (min)
Unit min implied. Number only.

Look up and report measured half-life for this entry: Cc1ccccc1COP(=O)(NCc1ccccc1)OCC1OC(n2cc(F)c(=O)[nH]c2=O)CC1O (stereo not shown) [FDURP]
27

These measurements were taken from patent US9095599B2.
